System: CCRIS mutagenicity, Ames/micronucleus/aberration tests
testDescription: CCRIS mutagenicity studies
conditionsUsed: Test System: AMES SALMONELLA TYPHIMURIUM; Strain/Indicator: TA1537; Metabolic Activation: NONE; Method: STANDARD PLATE
Calls of active or inactive are those of the source. How the calls were made is not given here.
Allowed answers: active, inactive

compound	classAssignment
O=C(O)c1cc(Cl)cc2cccnc12	inactive
CC/C=C\C/C=C\C/C=C\CCCCCCCC(=O)O	inactive
Nc1snc2cc(Cl)ccc12	inactive
NCCNCCO	inactive
CN(C)CCNC(=O)c1cc2ccccc2c2cccnc12	active

Lab log entry: CCC(CCOCn1cc[n+](C)c1/C=N/O)[N+](=O)[O-] (configuration not stated) — outcome as called in the assay? inactive

Query Cc1c(C(=O)O)c(O)cc2c1C(=O)c1c(O)c([C@@H]3O[C@H](CO)[C@@H](O)[C@H](O)[C@H]3O)c(O)c(O)c1C2=O next inactive

Query C=CC(=O)OCCOC(=O)C=C next inactive

Query CS(=O)(=O)Nc1ccc(Nc2c3ccccc3nc3cc(N=[N+]=[N-])ccc23)cc1 next active

Query C=C1CC/C=C(/C)CC[C@@H]2[C@@H]1CC2(C)C next inactive

Query O=[N+]([O-])c1ccc2c(CCO)c[nH]c2c1 next active

Query Cc1c(C)c2c(N)c3ccccc3nc2c2ccccc12 next active

====

Tested on: CCRIS mutagenicity, Ames/micronucleus/aberration tests
testDescription: CCRIS mutagenicity studies
conditionsUsed: Test System: AMES SALMONELLA TYPHIMURIUM; Strain/Indicator: TA1535; Metabolic Activation: NONE; Method: STANDARD PLATE
The source made the active and inactive calls. How the calls were made is not given here.
Allowed answers: active, inactive

Some solved entries appear below for comparison.
moleculeSmiles	classAssignment
CC[n+]1c(-c2ccccc2)c2cc(N)ccc2c2ccc(N)cc21	inactive
C=C(C)OC(C)=O	inactive
C#C[C@]1(OC(=O)CCCCCC)CC[C@H]2[C@@H]3CCC4=CC(=O)CC[C@@H]4[C@H]3CC[C@@]21C	inactive
CCNC(=O)N(C=O)CCN(C)C	active
CCCCNc1snc2ccccc12	inactive

Lab log entry: CC(C)c1cc(N)c([N+](=O)[O-])cc1N — outcome as called in the assay? inactive

Query CCN(CC)c1cc(NC(C)=O)c(N=Nc2ccc([N+](=O)[O-])cc2)cc1OC next inactive

====

Test system: CCRIS mutagenicity, Ames/micronucleus/aberration tests
testDescription: CCRIS mutagenicity studies
conditionsUsed: Test System: AMES SALMONELLA TYPHIMURIUM; Strain/Indicator: TA102; Metabolic Activation: RAT LIVER S-9, AROCLOR 1254; Method: STANDARD PLATE
Activity calls are given as the source filed them. No rule for the calls is given here.

moleculeSmiles	mutagenic call
NC(=O)N/N=C/c1ccc([N+](=O)[O-])o1	active; positive
CC[n+]1c(-c2ccccc2)c2cc(N)ccc2c2ccc(N)cc21	active; positive

====

Test system: CCRIS mutagenicity, Ames/micronucleus/aberration tests
testDescription: CCRIS mutagenicity studies
conditionsUsed: Test System: AMES SALMONELLA TYPHIMURIUM; Strain/Indicator: TA100; Metabolic Activation: RAT, LIVER, S-9, AROCLOR 1254; Method: STANDARD PLATE
Active and inactive are the calls of the source. How the calls were made is not given here.
Allowed answers: 1 (yes) = active, 0 (no) = inactive

compound	classAssignment
O=C([O-])c1cc(N=Nc2ccc(-c3ccc(N/N=c4/c(=O)cc/c(=N\Nc5cc(S(=O)(=O)[O-])ccc5[O-])c4=O)cc3)cc2)ccc1[O-].[Cu+2].[Na+].[Na+]	0 (no)
O=C(/C=C/c1ccccc1)c1ccc(O)cc1	0 (no)
Cc1ccncc1	0 (no)
Cc1cc(C)nc(SC(=O)OC(C)(C)C)n1	0 (no)
C#C[C@]1(OC(=O)CCCCCC)CC[C@H]2[C@@H]3CCC4=CC(=O)CC[C@@H]4[C@H]3CC[C@@]21C	0 (no)

Lab log entry: COc1c(Cl)ccc2oc3cc4c(c(OC)c3c(=O)c12)[C@@H]1C=CO[C@@H]1O4 — outcome as called in the assay? 1 (yes)

Query Oc1c(Br)cc(Br)cc1Br next 0 (no)

Query Oc1ccc2ccc3c4ccccc4cc4ccc1c2c43 next 1 (yes)

Query Nc1cc2nc3ccccc3nc2cc1N next 1 (yes)

====

System: CCRIS mutagenicity, Ames/micronucleus/aberration tests
testDescription: CCRIS mutagenicity studies
conditionsUsed: Test System: AMES SALMONELLA TYPHIMURIUM; Strain/Indicator: TA100; Metabolic Activation: NONE; Method: STANDARD PLATE
Active and inactive are the calls of the source. How the calls were made is not given here.
Allowed answers: yes (1) (active), no (0) (inactive)

compound	classAssignment
C=CCCCCC1CO1 (stereo unspecified)	no (0)

Lab log entry: O=Nc1nc[nH]c1-c1ccccc1 — outcome as called in the assay? yes (1)

Query NCCNC(=O)c1ccc(Cl)cn1 next no (0)

Query O=C1CCC2(O)c3c(ccc(O)c31)-c1ccc(O)c3c1C2C1OC1C3=O (stereo unspecified) next yes (1)

Query Nc1ccc(N=Nc2ccc(-c3ccc(N=Nc4c(S(=O)(=O)O)cc5c(c4N)C(=O)/C(=N/Nc4ccccc4)C(S(=O)(=O)O)=C5)cc3)cc2)c(N)c1 next no (0)

Query c1ccc(Cc2ccccc2OCC2CO2)cc1 (stereo unspecified) next yes (1)

Query CC[n+]1c(-c2ccccc2)c2cc(N)ccc2c2ccc(N)cc21 next no (0)

Query N=C(N)c1ccc(-c2cc3ccc(C(=N)N)cc3s2)cc1 next no (0)

Query C(=Nc1ccccc1)c1cccc2cccnc12 next no (0)

Query O=[N+]([O-])c1cc(NS(=O)(=O)c2cccc3cccnc23)ccc1Cl next no (0)

====

Tested on: CCRIS mutagenicity, Ames/micronucleus/aberration tests
testDescription: CCRIS mutagenicity studies
conditionsUsed: Test System: AMES SALMONELLA TYPHIMURIUM; Strain/Indicator: TA98; Metabolic Activation: RAT, LIVER, S-9, AROCLOR 1254; Method: PREINCUBATION
Excerpt: The CCRIS database contains chemical records with carcinogenicity, mutagenicity, tumor promotion, and tumor inhibition test results. It was developed by the National Cancer Institute (NCI). Data are derived from studies cited in primary journals, current awareness tools, NCI reports, and other sources. Test results have been reviewed by experts in carcinogenesis and mutagenesis. CCRIS provides historical information from the years 1985 - 2011. It is no longer updated. […]
Active and inactive are the calls of the source. No rule for the calls is given here.
Allowed answers: active, inactive

Some solved entries appear below for comparison.
compound	classAssignment
CC1C=CC(=O)O1 (centres undefined)	inactive
O=[N+]([O-])c1cc2c3ccccc3ccc2c2ccccc12	active
C(=C\c1ccccc1)/c1ccccc1	inactive
NC(=O)N/N=C/c1ccc([N+](=O)[O-])o1	active
Oc1cc(Cl)cc(Cl)c1	inactive

Lab log entry: COc1c(C(C)(C)C)cc([N+](=O)[O-])c(C)c1[N+](=O)[O-] — outcome as called in the assay? inactive

Query Cc1cnc2ccc3c(nc(N)n3C)c2n1 next active

====

System: CCRIS mutagenicity, Ames/micronucleus/aberration tests
testDescription: CCRIS mutagenicity studies
conditionsUsed: Test System: AMES SALMONELLA TYPHIMURIUM; Strain/Indicator: TA100; Metabolic Activation: HAMSTER, LIVER, S-9, AROCLOR 1254 (30%); Method: PREINCUBATION
The source made the active and inactive calls. The rule behind the calls is not given here.
measureName: mutagenic call

compound	measureName	testValue
CCN(CC)N=O	mutagenic call	active; positive
CCCCCCCCCCCC(=O)[O][Sn]([CH2]CCC)([CH2]CCC)[O]C(=O)CCCCCCCCCCC	mutagenic call	inactive; negative
CCCCCCCCCCCCCCCCC1CO1 (stereo not given)	mutagenic call	inactive; negative
CC(CCl)OP(=O)(OC(C)CCl)OC(C)CCl (stereo not given)	mutagenic call	inactive; negative
CCN(N=O)C(N)=O	mutagenic call	active; positive

Please look up its mutagenic call: COc1ccc(N)cc1 active; positive

Query Cc1cccc2cccnc12 next active; positive

====

System: CCRIS mutagenicity, Ames/micronucleus/aberration tests
testDescription: CCRIS mutagenicity studies
conditionsUsed: Test System: AMES SALMONELLA TYPHIMURIUM; Strain/Indicator: TA100; Metabolic Activation: NONE; Method: STANDARD PLATE
The source made the active and inactive calls. How the calls were made is not given here.
Allowed answers: y for active, n for inactive

moleculeSmiles	classAssignment
Cc1c(C(=O)O)c(O)cc2c1C(=O)c1c(O)c([C@@H]3O[C@H](CO)[C@@H](O)[C@H](O)[C@H]3O)c(O)c(O)c1C2=O	n
Cc1ccc(/C=C/c2ccc([N+](=O)[O-])cc2)cc1	y

Now for a further molecule.
Lab log entry: CN(C)/N=N/c1nc[nH]c1C(N)=O — outcome as called in the assay? y

====

System: CCRIS mutagenicity, Ames/micronucleus/aberration tests
testDescription: CCRIS mutagenicity studies
conditionsUsed: Test System: MOUSE LYMPHOMA; Strain/Indicator: L5178Y (TK+/TK-); Metabolic Activation: NONE; Method: SUSPENSION/PLATE
The source made the active and inactive calls. How the calls were made is not given here.
Allowed answers: True (active), False (inactive)

moleculeSmiles	classAssignment
Cc1ncc[nH]1	False
c1cnc2c(c1)ccc1cccnc12	True
Nc1ccc2ccccc2c1N=Nc1ccccc1	True

Lab log entry: O=C(O)c1cc(=O)c2c(OCC(O)COc3cccc4oc(C(=O)O)cc(=O)c34)cccc2o1 — outcome as called in the assay? False

Query Nc1ccccc1Cl next False
